Measured values drawn from patent US20230049752A1 for this set.

Could you please report measured FACS fluorescence for the items listed next?
- SYSTEM: human Claudin-6 (CLDN6) (human) (UniProt P56747)
- METHOD_SUMMARY: FACS, 0.3 ug Ab, 293T clone expressing human CLDN6 (2nd Ab only 768.07)
API note: the answer field is a bare number with no unit suffix.

// FACS fluorescence lookup, binder = AB11-3 (antibody, V domains shown, humanized) VH: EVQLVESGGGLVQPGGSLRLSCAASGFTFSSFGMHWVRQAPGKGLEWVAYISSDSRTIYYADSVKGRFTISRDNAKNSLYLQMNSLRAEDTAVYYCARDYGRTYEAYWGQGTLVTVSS VL: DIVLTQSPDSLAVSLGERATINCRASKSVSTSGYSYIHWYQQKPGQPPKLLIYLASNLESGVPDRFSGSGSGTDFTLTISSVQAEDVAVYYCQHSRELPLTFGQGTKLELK , result: 1010

// FACS fluorescence lookup, binder = AB1-11 (antibody, V domains shown, humanized; also called humanized AB1-11; HU-11) VH: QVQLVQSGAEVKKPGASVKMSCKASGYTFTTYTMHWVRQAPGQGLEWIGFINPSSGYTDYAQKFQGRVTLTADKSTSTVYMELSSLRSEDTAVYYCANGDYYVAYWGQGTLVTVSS VL: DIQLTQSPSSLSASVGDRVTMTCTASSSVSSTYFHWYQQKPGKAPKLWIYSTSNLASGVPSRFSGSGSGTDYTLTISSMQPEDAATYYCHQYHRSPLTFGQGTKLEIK , result: 64900

// FACS fluorescence lookup, binder = AB3-5 (antibody, V domains shown, humanized) VH: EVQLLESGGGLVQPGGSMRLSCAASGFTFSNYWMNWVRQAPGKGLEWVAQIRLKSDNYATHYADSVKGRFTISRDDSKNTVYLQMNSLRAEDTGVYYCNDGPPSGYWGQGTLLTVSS VL: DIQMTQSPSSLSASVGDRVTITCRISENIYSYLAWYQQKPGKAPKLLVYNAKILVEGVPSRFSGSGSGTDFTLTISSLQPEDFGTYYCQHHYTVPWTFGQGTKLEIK , result: 13300
